Collected growth values appear next to each entry.
test system: HCT-15 colon; assay: NCI-60 one-dose screen, 48 h (100 = growth as untreated, 0 = no growth, -100 = all killed); conditions: 10 µM unless noted
This is part of a sample that, as a whole, favours compounds with a hit. Of some 83,000 tested, about 20% had one in any assay. Active and inactive are the calls of the source. The calls were made as follows: active = growth percent below 10; inactive = the rest.

# compound, growth
data = [
    ("COc1ccc(C)cc1NC(=O)SC(C)C", "102% [100 µM] (inactive)"),
    ("OCC1CCC(O)C(CO)N1 (stereo not drawn)", "94.1% (inactive)"),
]

// moving on: another record for growth
Requested field: growth. Item: CC12CCC3c4ccc(O)cc4CCC3C1CCC2=O (stereo not drawn)
101% (inactive)

Attribution: PubChem BioAssay (NCI)
